system: MCF7 cells; test: Cell proliferation assay (ATPlite), MCF-7; assay type: cell-based, human; settings: Homo sapiens, inhibition of cell proliferation, 72 h
pEC50: −log10 of the molar value.
Reported pEC50 is given for each of the following compounds.

COc1cccc(-c2ccc(C)c(NS(=O)(=O)c3ccc(C)cc3)c2)n1 6.00 to 6.30
Cc1ccc(S(=O)(=O)Nc2cc(-c3ccc(C#N)cc3)ccc2C)cc1F > 6.30
COc1ccc(S(=O)(=O)Nc2cc(-c3ccc(C#N)c(C#N)c3)ccc2C)cc1 > 6.30
Cc1ccc(S(=O)(=O)Nc2cc(-c3ccc([N+](=O)[O-])o3)ccc2C)cc1 > 6.30
Cc1ccc(S(=O)(=O)Nc2cc(-c3ccsc3)ccc2C)cc1 > 6.30
COc1ccc(S(=O)(=O)Nc2cc(-c3ccc(C#N)c(O)c3)ccc2C)cc1 > 6.30
Cc1ccc(S(=O)(=O)Nc2cc(-c3csc(C#N)c3)ccc2C)cc1 > 6.30
Cc1ccc(-c2ccc(C#N)cc2)cc1NS(=O)(=O)c1cccc(F)c1 5.00 to 6.00
Cc1ccc(S(=O)(=O)Nc2cc(-c3ccccn3)ccc2C)cc1 6.00 to 6.30
Cc1ccc(S(=O)(=O)Nc2cc(-n3cnnc3)ccc2C)cc1 5.00 to 6.00

Find the recorded pEC50 belonging to Cc1ccc(S(=O)(=O)Nc2cc(-c3ccc(C#N)cn3)ccc2C)cc1 and report it.
> 6.30

Another: COc1ccc(S(=O)(=O)Nc2cc(-c3ccc(C#N)s3)ccc2C)cc1
> 6.30

Another: Cc1ccc(S(=O)(=O)Nc2cc(-c3ncccc3C)ccc2C)cc1
5.00 to 6.00

Another: COc1cc(-c2ccc(C)c(NS(=O)(=O)c3ccc(C)c(F)c3)c2)ccc1C#N
> 6.30

Another: Cc1ccc(S(=O)(=O)Nc2cc(-c3cscc3C#N)ccc2C)cc1
> 6.30

Origin of the recorded values: patent US20120095024A1
